Assay Name: Substrate specificities of KAZ mutants (ZZ-fused, crude enzyme), CTZ
Type: biochemical
Condition Parameters: ZZ-fused crude enzyme; 1 μg substrate; maximum intensity of luminescence
Result Type: Relative Luminescence Activity CTZ Imax
Lab note: jot the number down without any unit.

Before answering, review these 2 worked examples.
KAZ-V44I-A54I: KAZ mutant with two amino acid substitutions V44I and A54I, SEQ ID NO: 10 (protein) FTLADFVGDWQQTAGYNQDQVLEQGGLSSLFQALGVSVTPIQKIVLSGENGLKIDIHVIIPYEGLSGFQMGLIEMIFKVVYPVDDHHFKIILHYGTLVIDGVTPNMIDYFGRPYPGIAVFDGKQITVTGTLWNGNKIYDERLINPDGSLLFRVTINGVTGWRLCENILA | 15.3
KAZ-V44I-Y138I: KAZ mutant with two amino acid substitutions V44I and Y138I, SEQ ID NO: 12 (protein) FTLADFVGDWQQTAGYNQDQVLEQGGLSSLFQALGVSVTPIQKIVLSGENGLKADIHVIIPYEGLSGFQMGLIEMIFKVVYPVDDHHFKIILHYGTLVIDGVTPNMIDYFGRPYPGIAVFDGKQITVTGTLWNGNKIIDERLINPDGSLLFRVTINGVTGWRLCENILA | 17.1

Prompt: May I ask what Relative Luminescence Activity CTZ Imax has been recorded for KAZ-Y138I: KAZ with single amino acid substitution Y138I, SEQ ID NO: 8 (protein) FTLADFVGDWQQTAGYNQDQVLEQGGLSSLFQALGVSVTPIQKVVLSGENGLKADIHVIIPYEGLSGFQMGLIEMIFKVVYPVDDHHFKIILHYGTLVIDGVTPNMIDYFGRPYPGIAVFDGKQITVTGTLWNGNKIIDERLINPDGSLLFRVTINGVTGWRLCENILA ?
Response: 7.5
